B1: tRNA (parent)
chain: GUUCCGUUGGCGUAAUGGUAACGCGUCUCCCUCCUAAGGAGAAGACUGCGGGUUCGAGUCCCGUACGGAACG

variants of: B1; experiment: yeast fitness relative to wild type (ratio to wild type); higher = fitter; tRNA-Arg(CCU), competitive growth, 37 C, YPD
Variants at the floor of the assay were thinned out.
Experimental Endpoint: yeast fitness

Look over these answered cases.
>>> value_measured("A42C G50A C61G")
0.793
>>> value_measured("C5U C34A G50A U59G C62A")
"≤ 0.5"
>>> value_measured("A21G C55G")
0.671
>>> value_measured("U8A U19A G50C")
"≤ 0.5"
>>> value_measured("U2A G17C C22G A40C")
"≤ 0.5"

The variant listed as A21U G44C G58A A65G shows yeast fitness equal to ≤ 0.5

response.value for U2A G12A C30A A43U A57G C60A G67A (field: yeast fitness) = ≤ 0.5

yeast fitness recorded for this variant, C30G C34A C49G G50A U64A , is 0.56
